IC50, Factor Xa (Homo sapiens, UniProt P00742), per-entry values.
Reply with the number, then its unit.

O=C(NCCCCCCCCNC(=O)c1cccc(NS(=O)(=O)c2ccc3ccccc3c2)c1)c1cccc(NS(=O)(=O)c2ccc3ccccc3c2)c1 [Example 5] ... 2100 nM
O=C(NCc1cccc(CNC(=O)c2cccc(NS(=O)(=O)c3ccc4ccccc4c3)c2)c1)c1cccc(NS(=O)(=O)c2ccc3ccccc3c2)c1 [Example 7] ... 2400 nM

Output measured IC50 for this item: O=C(NCCCN1CCN(CCCNC(=O)c2cccc(NS(=O)(=O)c3ccc4ccccc4c3)c2)CC1)c1cccc(NS(=O)(=O)c2ccc3ccccc3c2)c1 [Example 6] 5200 nM
